Would you mind telling me the reported IC50 of each entry?
Test: Inhibition of Nitric oxide synthase activity in mouse BV2 cells assessed as LPS-induced NO production after 24 hrs by Griess reaction
Type: cell-based
Conditions: BV-2, 24 h

| input_smiles | IC50 |
| --- | --- |
| Cn1cccc1/C=C/C(=O)c1ccc(N2CCN(Cc3cc(C(=O)/C=C/c4cccn4C)ccc3O)CC2)cc1 | 1.2 µM |

For every item in the list below, what is its measured IC50?
1. COc1cc(C(=O)/C=C/c2ccccc2Cl)cc(CN2CCN(c3ccc(C(=O)/C=C/c4ccccc4Cl)cc3)CC2)c1O
2. COc1cc(C(C)=O)cc(CN2CCN(c3ccc(C(C)=O)cc3)CC2)c1O

**Result**
1: 10.9 µM; 2: 15.9 µM

The origin of these recorded values is ChEMBL document CHEMBL1681789.
